- ASSAY_EXPLANATION: Selectivity index, ratio of CC50 for African green monkey Vero A cells to EC50 for Chikungunya virus Indian ocean strain 899 infected in African green monkey Vero A cells
- Format: toxicity
- TEST_SETTINGS: read-out: Ratio CC50/EC50
The molecules listed here are annotated with their selectivity ratio.

1) CCCCC/C=C/C=C\C(=O)O[C@@H]1[C@@H](C)[C@@]2(O)[C@@H](C=C(CO)C[C@]3(O)C(=O)C(C)=C[C@@H]23)[C@@H]2C(C)(C)[C@]12OC(=O)C(C)C
> 12
2) CCCCC/C=C\C=C\C(=O)O[C@@H]1[C@@H](C)[C@@]2(O)[C@@H](C=C(CO)C[C@]3(O)C(=O)C(C)=C[C@@H]23)[C@@H]2C(C)(C)[C@]12OC(=O)C(C)C
> 12
3) CCCCC/C=C\C=C\C(=O)O[C@@H]1[C@@H](C)[C@@]2(O)[C@@H](C=C(CO)C[C@]3(O)C(=O)C(C)=C[C@@H]23)[C@@H]2C(C)(C)[C@]12OC(=O)C(C)CC (some centres undefined)
> 12

Now consider a different molecule.
Qu. Output measured selectivity ratio for this item: CCCCC/C=C/C=C\C(=O)O[C@@H]1[C@@H](C)[C@@]2(O)[C@@H](C(=O)C(CO)=C[C@]3(O)C(=O)C(C)=C[C@@H]23)[C@@H]2C(C)(C)[C@]12OC(=O)C(C)C
Ans. 6.3
